# Target Desc: Calmodulin-1 (Homo sapiens) (UniProt P0DP23)
# Protocol Summary: calcium-bound CALM1 binders on microarrays, profiling panel, artefact control for SMM control-protein annotation, biochemical, small-molecule microarray, Cy5-labelled CALM1, plus calcium (AID 1112);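 note: score merges spot fluorescence with signal to noise from triplicate slides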
# Protocol Conditions: Cy5-CALM1 binding fluorescence, higher = more signal

>  <Compound>
C=CCOC(=O)[C@H]1[C@@H]2C(=O)O[C@@H](c3ccccc3)[C@@H](c3ccccc3)N2[C@@H](c2ccc(OCCOC(=O)[C@@H]3C[C@@H]4C(=O)N[C@@H](Cc5ccccc5)C(=O)N4[C@@H]3c3ccc(O)cc3)cc2)[C@]12C(=O)Nc1ccccc12

>  <composite z-score>
0.0137

$$$$
>  <Compound>
COC(=O)c1c(CC[C@@H](CO)NC(=O)N[C@@H](Cc2ccccc2)Cn2cc(-c3cncn3C)nn2)oc(C(C)=O)c1C(=O)OC

>  <composite z-score>
-0.329

$$$$
>  <Compound>
O=C1OCCC=C[C@H]2OC34C=CCN(CCN5CCOCC5)C(=O)[C@H]3N(CCCO)C(=O)[C@@H]4C12 (stereo partly drawn)

>  <composite z-score>
-1.17

$$$$
>  <Compound>
CC(C)C[C@H]1NC(=O)[C@@H](C)NC(=O)[C@@]23C(=O)N[C@@H](Cc4ccccc4)C2[C@H](C)[C@@]2(C)O[C@H]2C3/C=C/C/C=C\CNC1=O (stereo partly drawn)

>  <composite z-score>
-1.09

$$$$
>  <Compound>
CCCCN1CC=CC23O[C@@H]4/C=C\CCC(C)OC(=O)C4[C@H]2C(=O)N(C(C)CO)[C@@H]3C1=O (stereo partly drawn)

>  <composite z-score>
-1.04

$$$$
>  <Compound>
NC(=O)NCC#Cc1ccc2c(c1)[C@]1(C(=O)N2)[C@H](C(=O)N2CCCCCCC2)[C@H]2C(=O)O[C@H](c3ccccc3)[C@H](c3ccccc3)N2[C@@H]1c1ccc(O)cc1

>  <composite z-score>
0.509

$$$$
>  <Compound>
O=C1NC(=O)C2C1C=CC(C(O)c1ccc(F)cc1)N2Nc1ccccn1 (stereo not drawn)

>  <composite z-score>
-0.255

$$$$
>  <Compound>
C=C(COC)C(=O)CC[C@@H](OC(=O)c1cccnc1)c1cccc(OCCO)c1

>  <composite z-score>
-0.89

$$$$
>  <Compound>
Cc1ccc(S[C@]2(C(=O)NCCCN(C)C)CC(=O)N(Cc3ccccc3Cl)[C@@H]2c2ccc(CO)cc2I)cc1

>  <composite z-score>
0.283

$$$$
>  <Compound>
CC(C)C(=C=CC[C@@H](O)c1cccc(OCCO)c1)CCO

>  <composite z-score>
-0.136

$$$$
>  <Compound>
C[C@H]1NC(=O)C([C@@H](C)OCc2ccccc2)NC(=O)[C@@]23C(=O)N[C@@H](Cc4ccccc4)C2[C@H](C)[C@@]2(C)O[C@H]2C3/C=C/C/C=C\CNC1=O (stereo partly drawn)

>  <composite z-score>
-0.854

$$$$
>  <Compound>
COc1ccc(NN2C(C(O)c3ccc(OC)cc3)C=CC3C(=O)N(C4CCCCC4)C(=O)C32)cc1 (stereo not drawn)

>  <composite z-score>
-0.366

$$$$
>  <Compound>
CC(=O)NCCCC[C@@H]1NC(=O)[C@H]2C[C@@H](C(=O)NCCCCCC[N+](C)(C)C)[C@@H](c3ccc(O)cc3)N2C1=O

>  <composite z-score>
-0.906

$$$$
>  <Compound>
CCCCC(O)C1C=CC2C(=O)NC(=O)C2N1Nc1ccc(Cl)cc1Cl (stereo not drawn)

>  <composite z-score>
0.476

$$$$
>  <Compound>
C=CCC(OC(C)=O)[C@@H]1[C@@H](N(Cc2ccc(-c3cccc(C(F)(F)F)c3)o2)C(=O)c2cccc3ccccc23)c2cc(OCCCO)ccc2N1C(=O)c1ccc2ccccc2c1 (stereo partly drawn)

>  <composite z-score>
0.17

$$$$
>  <Compound>
CCCCC(O)C1C=CC2C(=O)N(C)C(=O)C2N1Nc1ccccc1 (stereo not drawn)

>  <composite z-score>
0.032

$$$$
>  <Compound>
COCCOC(=O)N1C(=O)[C@@]2(c3cc(C#CC4=CCCCC4)ccc31)[C@H](c1ccccc1OCCO)N1[C@H](c3ccccc3)[C@H](c3ccccc3)OC(=O)[C@H]1[C@@H]2C(N)=O

>  <composite z-score>
-0.416

$$$$
>  <Compound>
C=CCC(OC(C)=O)[C@@H]1[C@@H](N(Cc2ccc(-c3cccc(C(F)(F)F)c3)o2)C(=O)c2cccc3ccccc23)c2cc(OCCCO)ccc2N1C(=O)c1ccc2ccccc2n1 (stereo partly drawn)

>  <composite z-score>
-0.108

$$$$
>  <Compound>
C=C(COC)/C(=C/C[C@H](OC(=O)c1ccncc1)c1ccc(OCCO)cc1)c1cc(C(=O)OC)ccc1OC

>  <composite z-score>
-0.467

$$$$
>  <Compound>
COc1ccc(NC(=O)O[C@H]2[C@H](OC(=O)Nc3ccc4c(c3)OCO4)[C@H](OC(=O)Nc3ccc4c(c3)OCO4)[C@@H](OC)O[C@@H]2CO)cc1

>  <composite z-score>
-0.958

$$$$
>  <Compound>
COC(=O)[C@]1(CO)N=C(c2ccc(OCCCO)cc2)O[C@@H]1c1ccccc1CN=[N+]=[N-]

>  <composite z-score>
-0.0036

$$$$
>  <Compound>
COC(=O)[C@@]1(CCC(=O)OC(C)(C)C)N=C(c2ccc(OCCCO)cc2)O[C@H]1c1ccccc1CN=[N+]=[N-]

>  <composite z-score>
-0.222

$$$$
>  <Compound>
CCCCCCc1nc(-c2ccc(OC)nc2)cc2c1[Si](C(C)C)(C(C)C)OC2

>  <composite z-score>
0.0559

$$$$
>  <Compound>
Cc1ccc(S[C@]2(C(=O)NCC(F)(F)F)CC(=O)N(C3CCCCC3)[C@@H]2c2ccc(CO)cc2)cc1

>  <composite z-score>
0.27

$$$$
>  <Compound>
Cc1ccc(S[C@]2(C(=O)NC3CC3)CC(=O)N(Cc3cc(C(F)(F)F)cc(C(F)(F)F)c3)[C@@H]2c2ccc(CO)cc2I)cc1

>  <composite z-score>
-0.213

$$$$
>  <Compound>
COCCOC(=O)N1C(=O)[C@@]2(c3cc(C#CCCO)ccc31)[C@H](C(=O)N1CCN(c3ncccn3)CC1)[C@H]1C(=O)O[C@H](c3ccccc3)[C@H](c3ccccc3)N1[C@@H]2c1ccc(O)cc1

>  <composite z-score>
-0.559

$$$$
>  <Compound>
CCCC[C@H]1OB(O)C[C@H]2C1=C(C)C[C@H]1C(=O)C=CC(=O)[C@H]12

>  <composite z-score>
-0.741

$$$$
>  <Compound>
C=C(CCCC)/C(=C/C[C@H](OC(C)=O)c1cccc(OCCO)c1)c1cc(C(=O)OC)ccc1OC

>  <composite z-score>
-1.12

$$$$
